Molecular target: Bcl-2 protein (Recombinant Human Bcl-2 Protein) (Homo sapiens)
Construct: purchased Novus NBP2-34889
Sequence (P10415 whole entry): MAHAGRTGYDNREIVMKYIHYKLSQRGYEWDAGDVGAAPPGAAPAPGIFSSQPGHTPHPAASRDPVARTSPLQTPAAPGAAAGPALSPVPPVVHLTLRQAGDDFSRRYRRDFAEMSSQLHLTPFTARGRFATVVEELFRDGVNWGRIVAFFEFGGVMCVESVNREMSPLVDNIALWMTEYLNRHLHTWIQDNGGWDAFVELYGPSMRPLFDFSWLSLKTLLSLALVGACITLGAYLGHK
Assay: Binding evaluation of mixture library compounds to Bcl-2 using AS-MS (affinity selection mass spectrometry)
Conditions: AS-MS on the mixture of 1200 library compounds; ASMS Ratio(%)=(A−C)/B×100; replicate n = 1
MEASURE_NAME: ASMS ratio (%) n = 1

{"columns": ["COMPOUND", "MEASURE_NAME", "NUMBER"],
 "data": [
  ["CCOc1cncc(-c2ccc(C(=O)N3CCN(c4ccc(C(=O)N(C)CC56CC7CC(CC(C7)C5)C6)cc4)CC3)cc2C)c1", "ASMS ratio (%) n = 1", 4.4],
  ["CCOc1cncc(-c2ccc(CN3CCN(c4ccc(C(=O)Nc5ccc(OC)cc5)nn4)CC3)cc2F)c1", "ASMS ratio (%) n = 1", 4.8]
]}

1 = CCOc1cccc(-c2ccc(C(C)N3CCN(c4ccc(C(=O)Nc5ccc(OC)cc5)cc4)CC3)cc2)c1 (centres unmarked)
2 = CCOc1cncc(-c2ccc(CN3CCN(c4ccc(C(=O)N(C)CC56CC7CC(CC(C7)C5)C6)nn4)CC3)c(CC)c2)c1
3 = CCOc1cncc(-c2ccc(CN3CCN(c4ccc(C(=O)N(C)CC56CC7CC(CC(C7)C5)C6)nn4)CC3)c(OC)c2)c1
Rank order required: ASMS ratio (%) n = 1, descending. Write the labels, ordered according to the request. 2, 1, 3
(2: 6.5%, 1: 4.2%, 3: 1.7%)
